Molecular target: human CTPS1 (Homo sapiens)
Construct: FLAG (with GG linker); His8 (with GG linker); purchased Proteros biostructures GmbH
Assay: RapidFire/MS-based enzyme selectivity assay (human CTPS1 versus CTPS2), CTPS1 isoform
Type: biochemical
Details: RapidFire/MS IC50 values of CTPS1 and CTPS2; Table 15
MEASUREMENT_LABEL: Selectivity (fold selectivity between CTPS1 and CTPS2)

CC(C)Oc1cncc(-c2ccc(C(=O)NC(C)(C)c3cncc(NS(=O)(=O)C4CC4)n3)c(F)c2)n1 | + (2-30 fold (+))
CCOc1cncc(-c2ccc(NC(=O)C(CC)c3ccnc(NS(=O)(=O)C4CC4)n3)c(C)c2)n1 (stereo not shown) | + (2-30 fold (+))

---

Molecular target: human CTPS1 (Homo sapiens, UniProt P17812)
Construct: FLAG (with GG linker); His8 (with GG linker); purchased Proteros biostructures GmbH
Assay: Human CTPS1 enzyme inhibition, ADP-Glo Max assay
Assay type: biochemical
Conditions: ADP-Glo Max assay; Table 10; read-out: Human CTPS1 Enzyme Inhibition, IC50 grouped by potency range (CTPS1)
pIC50: −log10 of the molar value.
Each entry below carries its recorded pIC50.

The examples below pair each entry with its known result.
CC(C)(C(=O)Nc1ccc(-c2cccc(Cl)n2)cc1)c1csc(NS(=O)(=O)C2CC2)n1 [T268] | 6.00 to 7.00
CC(C)(C(=O)Nc1ccc(-c2ccccc2)cc1)c1csc(NS(=O)(=O)C2CC2)n1 [T97] | 6.00 to 7.00
CC(C)(C(=O)Nc1ccc(-c2ccnnc2)cc1)c1csc(NS(=O)(=O)C2CC2)n1 [T31] | 5.00 to 6.00

Now take the following molecule into account.
Hello, please tell me recorded pIC50 for this one: Cc1sc(NS(=O)(=O)C2CC2)nc1C(C)(C)C(=O)Nc1ccc(-c2cccnc2)cc1 [T319]
5.00 to 6.00

---

Target: human CTPS1 (Homo sapiens, UniProt P17812)
Construct: FLAG (with GG linker); His8 (with GG linker); purchased Proteros biostructures GmbH
Sequence (P17812 1-591): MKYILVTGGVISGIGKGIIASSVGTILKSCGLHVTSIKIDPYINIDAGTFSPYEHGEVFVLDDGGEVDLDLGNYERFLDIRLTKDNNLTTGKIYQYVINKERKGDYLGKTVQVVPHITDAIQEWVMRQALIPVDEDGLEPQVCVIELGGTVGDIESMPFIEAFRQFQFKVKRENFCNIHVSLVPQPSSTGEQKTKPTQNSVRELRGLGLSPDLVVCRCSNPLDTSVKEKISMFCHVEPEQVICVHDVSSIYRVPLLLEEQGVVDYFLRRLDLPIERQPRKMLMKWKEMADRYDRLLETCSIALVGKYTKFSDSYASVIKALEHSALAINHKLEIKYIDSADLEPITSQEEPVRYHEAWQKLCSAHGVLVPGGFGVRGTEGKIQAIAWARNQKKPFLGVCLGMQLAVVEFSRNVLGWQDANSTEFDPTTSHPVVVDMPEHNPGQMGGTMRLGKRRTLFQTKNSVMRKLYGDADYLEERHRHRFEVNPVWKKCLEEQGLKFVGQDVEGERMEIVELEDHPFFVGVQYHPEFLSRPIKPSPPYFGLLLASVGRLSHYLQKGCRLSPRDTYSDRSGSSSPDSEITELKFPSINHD
Experiment: Human CTPS1 enzyme inhibition, ADP-Glo Max assay
Format: biochemical
Conditions: ADP-Glo Max assay; Table 10; read-out: Human CTPS1 Enzyme Inhibition, IC50 grouped by potency range (CTPS1)
MEASUREMENT_LABEL: IC50

The examples below pair each entry with its known result.
CC(C)(C(=O)Nc1ccc(-c2cncc(CO)c2)cc1)c1csc(NS(=O)(=O)C2CC2)n1 | 100 to 1000 nM
COc1cccc(-c2ccc(NC(=O)C(C)(C)c3csc(NS(=O)(=O)C4CC4)n3)cc2)c1 | 100 to 1000 nM
CC(C)(C(=O)Nc1ccc(-c2cncc(OC(F)F)c2)cc1F)c1csc(NS(=O)(=O)C2CC2)n1 | < 100 nM
CC(C)(C(=O)Nc1ncc(-c2cccnc2)cc1F)c1csc(NS(=O)(=O)C2CC2)n1 | 100 to 1000 nM
CCOc1cncc(-c2ccc(NC(=O)Cc3csc(NS(=O)(=O)C4CC4)n3)c(F)c2)n1 | < 100 nM
COc1ccccc1-c1ccc(NC(=O)Cc2csc(NS(=O)(=O)C3CC3)n2)cc1 | 100 to 1000 nM
CC(C)(C(=O)Nc1ccc(-c2cccnc2)cc1)c1csc(NS(=O)(=O)C2(C)CC2)n1 | 100 to 1000 nM

Now take the following compound into account.
Hello, please tell me recorded IC50 for this one: CC(C)(C(=O)Nc1ccc(-c2cncc(F)c2)cc1F)c1csc(NS(=O)(=O)C2CC2)n1
< 100 nM

---

Target: human CTPS1 (Homo sapiens, UniProt P17812)
Construct: FLAG (with GG linker); His8 (with GG linker); purchased Proteros biostructures GmbH
Experiment: RapidFire/MS-based enzyme selectivity assay (human CTPS1 versus CTPS2), CTPS1 isoform
Assay type: biochemical
Conditions: Table 16, human CTPS1 over human CTPS2, RapidFire/MS IC50 values
MEASUREMENT_LABEL: Selectivity (fold selectivity between CTPS1 and CTPS2)

CCOc1cncc(-c2ccc(C(=O)NC(C)(C)c3nc(NS(=O)(=O)C4CC4)sc3Cl)c(F)c2)n1 | +++ (>60 fold (+++))
CCOc1cncc(-c2ccc(C(=O)NC(CCOC)c3csc(NS(=O)(=O)C4CC4)n3)cc2)n1 (centres unmarked) | ++ (>30-60 fold (++))
CC(C)(NC(=O)c1ccc(-c2cncc(Cl)n2)cn1)c1csc(NS(=O)(=O)C2CC2)n1 | ++ (>30-60 fold (++))
Cc1cc(-c2cncc(C(F)(F)F)n2)ccc1C(=O)NC1(c2csc(NS(=O)(=O)C3CC3)n2)CC1 | +++ (>60 fold (+++))

Now take the following compound into account.
State, for human CTPS1 (Homo sapiens, UniProt P17812), measured Selectivity (fold selectivity between CTPS1 and CTPS2) of the compound listed here: CC(C)(NC(=O)c1ccc(-c2cncc(C(F)(F)F)n2)cc1)c1csc(NS(=O)(=O)C2CC2)n1
++ (>30-60 fold (++))

---

Each entry below carries its recorded IC50.
Biological target: human CTPS1 (Homo sapiens)
Construct: FLAG (with GG linker); His8 (with GG linker); purchased Proteros biostructures GmbH
Sequence (P17812 1-591): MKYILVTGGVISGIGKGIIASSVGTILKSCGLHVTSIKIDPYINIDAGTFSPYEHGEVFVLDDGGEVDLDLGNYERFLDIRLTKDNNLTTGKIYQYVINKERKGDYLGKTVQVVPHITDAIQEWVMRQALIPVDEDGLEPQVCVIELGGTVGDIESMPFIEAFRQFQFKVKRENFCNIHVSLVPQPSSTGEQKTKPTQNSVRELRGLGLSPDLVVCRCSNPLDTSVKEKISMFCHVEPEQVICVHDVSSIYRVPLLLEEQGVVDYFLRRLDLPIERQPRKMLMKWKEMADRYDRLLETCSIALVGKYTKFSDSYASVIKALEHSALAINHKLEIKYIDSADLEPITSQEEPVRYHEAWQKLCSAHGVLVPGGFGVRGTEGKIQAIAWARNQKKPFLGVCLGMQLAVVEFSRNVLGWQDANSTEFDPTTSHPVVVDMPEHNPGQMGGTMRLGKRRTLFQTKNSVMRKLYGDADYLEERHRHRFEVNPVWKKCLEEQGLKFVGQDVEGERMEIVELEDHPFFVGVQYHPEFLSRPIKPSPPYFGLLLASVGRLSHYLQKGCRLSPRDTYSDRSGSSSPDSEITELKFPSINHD
Assay: Human CTPS1 enzyme inhibition, ADP-Glo Max assay
Assay type: biochemical
Details: ADP-Glo Max assay; Table 10; read-out: Human CTPS1 Enzyme Inhibition, IC50 grouped by potency range (CTPS1)

The examples below pair each entry with its known result.
C#Cc1cncc(-c2ccc(NC(=O)C(C)(C)c3csc(NS(=O)(=O)C4CC4)n3)cc2)n1 [T136] | < 100 nM
CC(C)(C(=O)Nc1ccc(-c2cncc(C#N)c2)cc1)c1csc(NS(=O)(=O)C2CC2)n1 [T47] | < 100 nM
Cc1ncc(Cl)nc1-c1ccc(NC(=O)C(C)(C)c2csc(NS(=O)(=O)C3CC3)n2)cc1 [T276] | 100 to 1000 nM
CC(C)(C(=O)Nc1ccc(-c2cccnc2)nc1)c1csc(NS(=O)(=O)C2CC2)n1 [T116] | 100 to 1000 nM
CCCOc1cncc(-c2ccc(NC(=O)C(C)(C)c3csc(NS(=O)(=O)C4CC4)n3)cc2)c1 [T157] | < 100 nM

State, for human CTPS1 (Homo sapiens), measured IC50 of the molecule listed here: Cc1cc(-c2cncc(Cl)n2)ccc1NC(=O)C(C)(C)c1csc(NS(=O)(=O)C2CC2)n1 [T138]
< 100 nM

State, for human CTPS1 (Homo sapiens), measured IC50 of the molecule listed here: Cc1cc(-c2cncc(C#N)n2)ccc1NC(=O)C(C)(C)c1csc(NS(=O)(=O)C2CC2)n1 [T465]
1000 to 10000 nM

State, for human CTPS1 (Homo sapiens), measured IC50 of the molecule listed here: CC(C)(C(=O)Nc1ccc(-c2cncc(OCC(F)(F)F)c2)cc1)c1csc(NS(=O)(=O)C2CC2)n1 [T135]
100 to 1000 nM
